This listing pairs molecules with measured Number of a sp. of Bacterioides after the administration.
# System: a species of Bacteroides
# Assay details: Effect on intestinal bacteria: number of a sp. of Bacteroides in feces
# Type: in vivo, ICR mice
# Applied conditions: mouse, in vivo, po, 500 mg/kg/day

{"columns": ["Molecule", "Observed"],
 "data": [
  ["COC(=O)CNC(=O)c1ccc(NC(=O)C2=C(COC(C)=O)CSC3C(NC(=O)CC#N)C(=O)N23)cc1 (stereo not shown)", "8.5 Log10 (number of bacteria/g feces)"],
  ["COC(=O)Cc1ccc(NC(=O)C2=C(C)CSC3C(NC(=O)[C@H](N)c4ccccc4)C(=O)N23)cc1 (stereo partly shown)", "8.3 Log10 (number of bacteria/g feces)"],
  ["Cc1ccc(NC(=O)C2=C(CSc3nnc(C)s3)CSC3C(NC(=O)Cn4cnnn4)C(=O)N23)cc1 (stereo not shown)", "8.1 Log10 (number of bacteria/g feces)"],
  ["COC(=O)CNC(=O)c1ccc(NC(=O)C2=C(C)CSC3C(NC(=O)[C@H](N)c4ccccc4)C(=O)N23)cc1 (stereo partly shown)", "8.4 Log10 (number of bacteria/g feces)"],
  ["COC(=O)CNC(=O)c1ccc(NC(=O)C2=C(COC(C)=O)CSC3C(NC(=O)CSc4ccncc4)C(=O)N23)cc1 (stereo not shown)", "8.1 Log10 (number of bacteria/g feces)"],
  ["Cc1nnc(SCC2=C(C(=O)O)N3C(=O)[C@@H](NC(=O)Cn4cnnn4)[C@H]3SC2)s1 [SODIUM CEFAZORIN, reference compound]", "7.3 Log10 (number of bacteria/g feces)"]
]}

Specify Number of a sp. of Bacterioides after the administration for COC(=O)CNC(=O)c1ccc(NC(=O)C2=C(CSc3nnc(C)s3)CSC3C(NC(=O)Cn4cnnn4)C(=O)N23)cc1 (stereo not shown) and stop.
8.2 Log10 (number of bacteria/g feces)

Specify Number of a sp. of Bacterioides after the administration for COC(=O)Cc1ccc(NC(=O)C2=C(COC(C)=O)CSC3C(NC(=O)CC#N)C(=O)N23)cc1 (stereo not shown) and stop.
8.9 Log10 (number of bacteria/g feces)

* * *

# Test system: a species of Bacteroides
# Assay details: Effect on intestinal bacteria: number of a sp. of Bacteroides in feces
# Type: in vivo, ICR mice
# Applied conditions: mouse, in vivo, po, 500 mg/kg/day
Measurement type: Number of a sp. of Bacterioides after the administration

{"columns": ["Molecule", "Observed"],
 "data": [
  ["COC(=O)c1ccc(NC(=O)C2=C(COC(C)=O)CSC3C(NC(=O)CSc4ccncc4)C(=O)N23)cc1 (stereo not shown)", "8.8 Log10 (number of bacteria/g feces)"],
  ["CC(=O)OCC1=C(C(=O)Nc2ccc(C(N)=O)cn2)N2C(=O)C(NC(=O)CC#N)C2SC1 (stereo not shown)", "8.6 Log10 (number of bacteria/g feces)"],
  ["Cc1nnc(SCC2=C(C(=O)Nc3ccc(C(=O)O)cc3)N3C(=O)C(NC(=O)Cn4cnnn4)C3SC2)s1 (stereo not shown)", "8.8 Log10 (number of bacteria/g feces)"],
  ["CC(=O)OCC1=C(C(=O)Nc2ccc(C)cc2)N2C(=O)C(NC(=O)CC#N)C2SC1 (stereo not shown)", "8.9 Log10 (number of bacteria/g feces)"],
  ["COC(=O)Cc1ccc(NC(=O)C2=C(CSc3nnc(C)s3)CSC3C(NC(=O)Cn4cnnn4)C(=O)N23)cc1 (stereo not shown)", "8.4 Log10 (number of bacteria/g feces)"]
]}

Specify Number of a sp. of Bacterioides after the administration for CC(=O)OCC1=C(C(=O)Nc2ccc(C(N)=O)cn2)N2C(=O)C(NC(=O)CSc3ccncc3)C2SC1 (stereo not shown) and stop.
8.7 Log10 (number of bacteria/g feces)

Specify Number of a sp. of Bacterioides after the administration for COC(=O)c1ccc(NC(=O)C2=C(CSc3nnc(C)s3)CSC3C(NC(=O)Cn4cnnn4)C(=O)N23)cc1 (stereo not shown) and stop.
8.7 Log10 (number of bacteria/g feces)
